Test system: Pseudomonas aeruginosa
Assay: Antibacterial activity against Pseudomonas aeruginosa after 24 hr by disc diffusion method
Type: functional
readout: diameter of the inhibition zone (DIZ) (mm)
# number only, unit mm dropped from output

// below: answered molecules
COc1cc(C2C(Cl)C(=O)N2NC(=O)NCC(=O)N2c3ccccc3Sc3ccccc32)ccc1O (centres undefined) | 10
O=C(O)c1cn(C2CC2)c2cc(N3CCNCC3)c(F)cc2c1=O | 22
O=C(NCC(=O)N1c2ccccc2Sc2ccccc21)NN1C(=O)C(Cl)C1c1ccccc1Cl (centres undefined) | 7

## Input diameter of the inhibition zone (DIZ) for O=C(NCC(=O)N1c2ccccc2Sc2ccccc21)NN1C(=O)C(Cl)C1c1ccc(Cl)cc1 (centres undefined) ?
## Output 5

## Input // same read-out, input: O=C(NCC(=O)N1c2ccccc2Sc2ccccc21)NN1C(=O)C(Cl)C1c1cccc(Cl)c1 (centres undefined)
## Output 10

## Input // same read-out, input: O=C(NCC(=O)N1c2ccccc2Sc2ccccc21)NN1C(=O)C(Cl)C1c1ccc(O)cc1 (centres undefined)
## Output 18

## Input // same read-out, input: O=C(NCC(=O)N1c2ccccc2Sc2ccccc21)NN1C(=O)C(Cl)C1c1cccc(F)c1 (centres undefined)
## Output 11

## Input // same read-out, input: CN(C)c1ccc(C2C(Cl)C(=O)N2NC(=O)NCC(=O)N2c3ccccc3Sc3ccccc32)cc1 (centres undefined)
## Output 12

## Input // same read-out, input: COc1ccc(C2C(Cl)C(=O)N2NC(=O)NCC(=O)N2c3ccccc3Sc3ccccc32)cc1 (centres undefined)
## Output 7

----------
Test system: Pseudomonas aeruginosa
Experiment: Antibacterial activity against Pseudomonas aeruginosa after 18 hr by serial dilution method
Assay type: functional
readout: MIC (µg/mL)
# number only, unit µg/mL dropped from output

// below: answered compounds
O=C(NCC(=O)N1c2ccccc2Sc2ccccc21)NN1C(=O)C(Cl)C1c1cccc(Cl)c1 (stereo not given) | 125
COc1cc(C2C(Cl)C(=O)N2NC(=O)NCC(=O)N2c3ccccc3Sc3ccccc32)ccc1O (stereo not given) | 125

## Input MIC for O=C(O)c1cn(C2CC2)c2cc(N3CCNCC3)c(F)cc2c1=O [CIPROFLOXACIN] ?
## Output 62.5

## Input // same read-out, input: O=C(NCC(=O)N1c2ccccc2Sc2ccccc21)NN1C(=O)C(Cl)C1c1ccc([N+](=O)[O-])cc1 (stereo not given)
## Output 500

## Input // same read-out, input: CN(C)c1ccc(C2C(Cl)C(=O)N2NC(=O)NCC(=O)N2c3ccccc3Sc3ccccc32)cc1 (stereo not given)
## Output 62.5

## Input // same read-out, input: O=C(NCC(=O)N1c2ccccc2Sc2ccccc21)NN1C(=O)C(Cl)C1c1ccccc1Cl (stereo not given)
## Output 250

## Input // same read-out, input: O=C(NCC(=O)N1c2ccccc2Sc2ccccc21)NN1C(=O)C(Cl)C1c1ccc(O)cc1 (stereo not given)
## Output 62.5

## Input // same read-out, input: COc1ccc(C2C(Cl)C(=O)N2NC(=O)NCC(=O)N2c3ccccc3Sc3ccccc32)cc1 (stereo not given)
## Output 125

## Input // same read-out, input: O=C(NCC(=O)N1c2ccccc2Sc2ccccc21)NN1C(=O)C(Cl)C1c1ccc(Cl)cc1 (stereo not given)
## Output 250

## Input // same read-out, input: O=C(NCC(=O)N1c2ccccc2Sc2ccccc21)NN1C(=O)C(Cl)C1c1cccc(F)c1 (stereo not given)
## Output 125

----------
System: Radical scavenging activity
Assay: Antioxidant activity assessed as DPPH radical scavenging activity after 30 min by spectrophotometric analysis
Assay type: functional
readout: EC50 (µg/mL)
# number only, unit µg/mL dropped from output

O=C(NCC(=O)N1c2ccccc2Sc2ccccc21)NN1C(=O)C(Cl)C1c1ccccc1Cl (stereo not given) | 57

## Input EC50 for O=C(NCC(=O)N1c2ccccc2Sc2ccccc21)NN1C(=O)C(Cl)C1c1cccc(F)c1 (stereo not given) ?
## Output 47

## Input // same read-out, input: CN(C)c1ccc(C2C(Cl)C(=O)N2NC(=O)NCC(=O)N2c3ccccc3Sc3ccccc32)cc1 (stereo not given)
## Output 55

## Input // same read-out, input: O=C(NCC(=O)N1c2ccccc2Sc2ccccc21)NN1C(=O)C(Cl)C1c1ccc(Cl)cc1 (stereo not given)
## Output 56

## Input // same read-out, input: O=C1O[C@H]([C@@H](O)CO)C(O)=C1O
## Output 40

----------
Quick list: MIC per entry.
Tested on: Staphylococcus aureus
Assay: Antibacterial activity against Staphylococcus aureus after 18 hr by serial dilution method
Type: functional
# number only, unit µg/mL dropped from output

// below: answered compounds
O=C(NCC(=O)N1c2ccccc2Sc2ccccc21)NN1C(=O)C(Cl)C1c1ccc(Cl)cc1 (stereo not given) | 62.5
CN(C)c1ccc(C2C(Cl)C(=O)N2NC(=O)NCC(=O)N2c3ccccc3Sc3ccccc32)cc1 (stereo not given) | 125
O=C(NCC(=O)N1c2ccccc2Sc2ccccc21)NN1C(=O)C(Cl)C1c1ccccc1Cl (stereo not given) | 500
O=C(NCC(=O)N1c2ccccc2Sc2ccccc21)NN1C(=O)C(Cl)C1c1ccc([N+](=O)[O-])cc1 (stereo not given) | 250
O=C(NCC(=O)N1c2ccccc2Sc2ccccc21)NN1C(=O)C(Cl)C1c1cccc(Cl)c1 (stereo not given) | 250

## Input MIC for COc1ccc(C2C(Cl)C(=O)N2NC(=O)NCC(=O)N2c3ccccc3Sc3ccccc32)cc1 (stereo not given) ?
## Output 250

## Input // same read-out, input: O=C(O)c1cn(C2CC2)c2cc(N3CCNCC3)c(F)cc2c1=O
## Output 62.5

## Input // same read-out, input: O=C(NCC(=O)N1c2ccccc2Sc2ccccc21)NN1C(=O)C(Cl)C1c1cccc(F)c1 (stereo not given)
## Output 250

## Input // same read-out, input: O=C(NCC(=O)N1c2ccccc2Sc2ccccc21)NN1C(=O)C(Cl)C1c1ccc(O)cc1 (stereo not given)
## Output 125

## Input // same read-out, input: COc1cc(C2C(Cl)C(=O)N2NC(=O)NCC(=O)N2c3ccccc3Sc3ccccc32)ccc1O (stereo not given)
## Output 250

----------
System: Mycobacterium tuberculosis
Assay: Growth inhibition of Mycobacterium tuberculosis H37Rv at 1 ug/ml after 7 days by resazurin microplate assay
Type: functional, organism-based
The source made the active and inactive calls. No cut-off for these calls is given here.
Use one of these outcomes when replying: True for active, False for inactive

Below, 3 compounds whose answers are already recorded.
O=C(NCC(=O)N1c2ccccc2Sc2ccccc21)NN1C(=O)C(Cl)C1c1cccc(Cl)c1 (centres undefined) | False
O=C(NCC(=O)N1c2ccccc2Sc2ccccc21)NN1C(=O)C(Cl)C1c1ccc([N+](=O)[O-])cc1 (centres undefined) | False
CN(C)c1ccc(C2C(Cl)C(=O)N2NC(=O)NCC(=O)N2c3ccccc3Sc3ccccc32)cc1 (centres undefined) | False

Turning now to a further compound:
## Input State the result this test recorded for CO[C@H]1/C=C/O[C@@]2(C)Oc3c(C)c(O)c4c(O)c(c(/C=N/N5CCN(C)CC5)c(O)c4c3C2=O)NC(=O)/C(C)=C\C=C\[C@H](C)[C@H](O)[C@@H](C)[C@@H](O)[C@@H](C)[C@H](OC(C)=O)[C@@H]1C .
## Output True

----------
System: Trichophyton rubrum
Experiment: Antifungal activity against Trichophyton rubrum after 24 hr by disk diffusion method
Format: functional
readout: diameter of the inhibition zone (DIZ) (mm)
# number only, unit mm dropped from output

// below: answered compounds
O=C(NCC(=O)N1c2ccccc2Sc2ccccc21)NN1C(=O)C(Cl)C1c1ccccc1Cl (stereo not given) | 10
Clc1ccccc1C(c1ccccc1)(c1ccccc1)n1ccnc1 | 22
COc1cc(C2C(Cl)C(=O)N2NC(=O)NCC(=O)N2c3ccccc3Sc3ccccc32)ccc1O (stereo not given) | 4

## Input diameter of the inhibition zone (DIZ) for CN(C)c1ccc(C2C(Cl)C(=O)N2NC(=O)NCC(=O)N2c3ccccc3Sc3ccccc32)cc1 (stereo not given) ?
## Output 7

## Input // same read-out, input: O=C(NCC(=O)N1c2ccccc2Sc2ccccc21)NN1C(=O)C(Cl)C1c1cccc(F)c1 (stereo not given)
## Output 7

## Input // same read-out, input: O=C(NCC(=O)N1c2ccccc2Sc2ccccc21)NN1C(=O)C(Cl)C1c1cccc(Cl)c1 (stereo not given)
## Output 6

## Input // same read-out, input: O=C(NCC(=O)N1c2ccccc2Sc2ccccc21)NN1C(=O)C(Cl)C1c1ccc(O)cc1 (stereo not given)
## Output 8

## Input // same read-out, input: COc1ccc(C2C(Cl)C(=O)N2NC(=O)NCC(=O)N2c3ccccc3Sc3ccccc32)cc1 (stereo not given)
## Output 6

## Input // same read-out, input: O=C(NCC(=O)N1c2ccccc2Sc2ccccc21)NN1C(=O)C(Cl)C1c1ccc([N+](=O)[O-])cc1 (stereo not given)
## Output 5

## Input // same read-out, input: O=C(NCC(=O)N1c2ccccc2Sc2ccccc21)NN1C(=O)C(Cl)C1c1ccc(Cl)cc1 (stereo not given)
## Output 6
